- Test system: larvae of the banded cucumber beetle (Diabrotica balteata)
- assay_info: Diabrotica balteata spray test
- Format: in vivo
- measurement_parameters: 168 h, 100 g/ha (=32 μg/well), after 7 days, wheat seeds, read-out: efficacy (seedlings grown like untreated, uninfected control)
reported_property: pest or weed control at 32 µg/disc, 100 g/ha (%)

{"molecule": "CC(NC(=O)c1cc(Cl)cc(C(F)(F)F)c1)c1nc(Cl)nn1-c1ncccn1 (stereo not drawn) [Example I-004]", "test_system": "larvae of the banded cucumber beetle (Diabrotica balteata)", "unit_label": "%", "recorded_value": 100}
{"molecule": "CC(NC(=O)c1cc(Cl)cc(Cl)c1)c1nc(Cl)nn1-c1ncccn1 (stereo not drawn) [Example I-005]", "test_system": "larvae of the banded cucumber beetle (Diabrotica balteata)", "unit_label": "%", "recorded_value": 100}
{"molecule": "CC(NC(=O)c1cncc(C(F)(F)F)c1)c1nc(Br)nn1-c1ncccn1 (stereo not drawn) [Example I-015]", "test_system": "larvae of the banded cucumber beetle (Diabrotica balteata)", "unit_label": "%", "recorded_value": 80}
